Test system: HCT116 (colon)
Assay: In vitro cytotoxic activity (MTT) assay, HCT116
Assay type: cell-based
Settings: Homo sapiens, HCT-116; HCT116 (colon) cells, 96 hours exposure; read-out: IC50, 50% inhibition of cell proliferation
outcomeMeasure: IC50 (µM)

Clc1ccc(Nc2c3ccncc3nc3c2[nH]c2cnccc23)cc1 1.5
